Tested on: CCRIS mutagenicity, Ames/micronucleus/aberration tests
Experiment: CCRIS mutagenicity studies
Conditions: Test System: AMES SALMONELLA TYPHIMURIUM; Strain/Indicator: TA1535; Metabolic Activation: RAT, LIVER, S-9, AROCLOR 1254; Method: STANDARD PLATE
Activity calls are given as the source filed them. How the calls were made is not given here.
Answer with one of the outcomes given here: class 1 = active, class 0 = inactive

Exam item: What did the test return for `CCCCCCCCCCCCCCCC(=O)OC/C=C(C)/C=C/C=C(C)/C=C/C1=C(C)CCCC1(C)C` ?
Marked response: class 0

Exam item: Each compound tested received a call. Report the one for CCOCC1CO1 (stereo not drawn) .
Marked response: class 1

Exam item: Hey, what did the test say about `C=C(C)C(=O)OCCCC` ?
Marked response: class 0

Exam item: Check the results log: what was the call for `O=[N+]([O-])C1=Cc2cccc3c2c1cc1ccc2ccccc2c13` ?
Marked response: class 0

Exam item: Hey, what did the test say about `O=[N+]([O-])C1=Cc2ccc3ccc4cccc5cc1c2c3c45` ?
Marked response: class 0

Exam item: Dear all, I need the recorded test outcome for `CCCCCCCCCCCCCCCCCCO` , thank you.
Marked response: class 0

Exam item: What is the recorded call for this compound in the test? O=C(O)C1OC1C(=O)O (stereo not drawn)
Marked response: class 0

Exam item: Dear all, I need the recorded test outcome for O=P(O)(O)OCC(O)CO (stereo not drawn) , thank you.
Marked response: class 0

====

System: CCRIS mutagenicity, Ames/micronucleus/aberration tests
Test: CCRIS mutagenicity studies
Settings: Test System: CHINESE HAMSTER OVARY; Strain/Indicator: CHO-K1-BH4 (HGPRT); Metabolic Activation: NONE
Calls of active or inactive are those of the source. The rule behind the calls is not given here.
// one of active, inactive, no free text

Worked cases, answers included:
{"columns": ["molecule-smiles", "qualitative-label"],
 "data": [
  ["O=[N+]([O-])c1ccc2ccc3c4ccccc4cc4ccc1c2c43", "inactive"],
  ["CC(C)O", "inactive"],
  ["O=[N+]([O-])c1ccc2ccc3c4c(cc5ccc1c2c53)[C@H](O)[C@@H](O)C=C4", "active"],
  ["CCC(=O)Nc1ccc(Cl)c(Cl)c1", "inactive"],
  ["O=[N+]([O-])c1ccc2ccc3cc4c(c5ccc1c2c35)C=C[C@H](O)[C@H]4O", "active"]
]}

Exam item: What outcome does the record of this test show for `O=[N+]([O-])c1ccc2ccc3cc4ccccc4c4ccc1c2c34` ?
Marked response: inactive

Exam item: How did this test come out for `ONc1ccc(Cl)c(Cl)c1` ?
Marked response: inactive

Exam item: Test call, this molecule: `O=Nc1ccc2ccc3cc4ccccc4c4ccc1c2c34`
Marked response: active

====

Tested on: CCRIS mutagenicity, Ames/micronucleus/aberration tests
Assay: CCRIS mutagenicity studies
Details: Test System: AMES SALMONELLA TYPHIMURIUM; Strain/Indicator: TA98; Metabolic Activation: RAT, LIVER, S-9; Method: STANDARD PLATE
Active and inactive are the calls of the source. No rule for the calls is given here.
quantity-kind: mutagenic call

{"columns": ["molecule-smiles", "tested-target", "quantity-kind", "recorded-result"],
 "data": [
  ["O=C(O)c1cc2c(c3c1c([N+](=O)[O-])cc1ccccc13)OCO2", "CCRIS mutagenicity, Ames/micronucleus/aberration tests", "mutagenic call", "inactive; negative"],
  ["CC(=O)Nc1nc2c3cccnc3ccc2n1C", "CCRIS mutagenicity, Ames/micronucleus/aberration tests", "mutagenic call", "active; positive"],
  ["O=[N+]([O-])c1c2c(cc3ccccc13)[C@@H](O)[C@H](O)C=C2", "CCRIS mutagenicity, Ames/micronucleus/aberration tests", "mutagenic call", "active; positive"],
  ["O=NN(CC(=O)O)CC(=O)O", "CCRIS mutagenicity, Ames/micronucleus/aberration tests", "mutagenic call", "inactive; negative"]
]}

====

Test system: CCRIS mutagenicity, Ames/micronucleus/aberration tests
Assay: CCRIS mutagenicity studies
Settings: Test System: AMES SALMONELLA TYPHIMURIUM; Strain/Indicator: TA100; Metabolic Activation: NONE; Method: STANDARD PLATE
Activity calls are given as the source filed them. The rule behind the calls is not given here.
Answer with one of the outcomes given here: active, inactive

Observe how each entry below is paired with its result.
{"columns": ["compound", "qualitative-label"],
 "data": [
  ["O=c1c(O)c(C2=CC(O)(CCO)C(O)(CCO)C=C2)oc2c1C(O)=CC(O)(CCO)C2 (stereo not given)", "inactive"],
  ["CC(=O)Nc1ccc(Oc2ccc(NC(C)=O)cc2)cc1", "inactive"],
  ["O=c1[nH][nH]c2ccccc12", "inactive"],
  ["O=[N+]([O-])c1ccc2ccc3c4ccccc4cc4ccc1c2c43", "active"],
  ["Nc1c(N=Nc2ccc(-c3ccc(N=Nc4cc(S(=O)(=O)O)c5ccccc5c4N)cc3)cc2)cc(S(=O)(=O)O)c2ccccc12", "active"]
]}

In the following, a different compound is considered.
Exam item: Called result for `c1ccc2cc3c(ccc4ccccc43)cc2c1`
Marked response: inactive

====

Tested on: CCRIS mutagenicity, Ames/micronucleus/aberration tests
Test: CCRIS mutagenicity studies
Details: Test System: AMES SALMONELLA TYPHIMURIUM; Strain/Indicator: TA1538; Metabolic Activation: RAT, LIVER, S-9, PHENOBARBITAL; Method: STANDARD PLATE
Excerpt: The CCRIS database contains chemical records with carcinogenicity, mutagenicity, tumor promotion, and tumor inhibition test results. It was developed by the National Cancer Institute (NCI). Data are derived from studies cited in primary journals, current awareness tools, NCI reports, and other sources. Test results have been reviewed by experts in carcinogenesis and mutagenesis. CCRIS provides historical information from the years 1985 - 2011. It is no longer updated. […]
Active and inactive are the calls of the source. The rule behind the calls is not given here.
Please state which outcome applies, choosing from active, inactive

{"columns": ["molecule-smiles", "qualitative-label"],
 "data": [
  ["c1cncc(-c2cccnc2)c1", "active"],
  ["c1cc(-c2ccncc2)ccn1", "inactive"],
  ["c1ccc2cc3c(ccc4ccccc43)cc2c1", "active"]
]}

Exam item: For this molecule, state the assay outcome: `Nc1ccc2c([nH]c3ccccc32)c1[N+](=O)[O-]`
Marked response: active

====

Test system: CCRIS mutagenicity, Ames/micronucleus/aberration tests
Experiment: CCRIS mutagenicity studies
Conditions: Test System: AMES SALMONELLA TYPHIMURIUM; Strain/Indicator: YG1020; Metabolic Activation: RAT, LIVER, S-9, PCB; Method: PREINCUBATION
Activity calls are given as the source filed them. How the calls were made is not given here.

{"columns": ["molecule-smiles", "mutagenic call"],
 "data": [
  ["O=[N+]([O-])c1ccc(CNc2ncnc3nc[nH]c23)cc1", "inactive; negative"],
  ["Nc1ncnc2nc(-c3ccc([N+](=O)[O-])cc3)[nH]c12", "active; positive"],
  ["Nc1nc(-c2ccc([N+](=O)[O-])cc2)nc2c1ncn2-c1ccc([N+](=O)[O-])cc1", "active; positive"],
  ["O=[N+]([O-])c1ccc(Nc2ncnc3nc[nH]c23)cc1", "inactive; negative"]
]}

====

Tested on: CCRIS mutagenicity, Ames/micronucleus/aberration tests
Experiment: CCRIS mutagenicity studies
Settings: Test System: AMES SALMONELLA TYPHIMURIUM; Strain/Indicator: TA1535; Metabolic Activation: NONE; Method: STANDARD PLATE
Activity calls are given as the source filed them. No rule for the calls is given here.
Use one of these outcomes when replying: yes for active, no for inactive

{"columns": ["compound", "tested-target", "qualitative-label"],
 "data": [
  ["C=C(C)C(=O)OCC(C)(C)COC(=O)C(=C)C", "CCRIS mutagenicity, Ames/micronucleus/aberration tests", "no"],
  ["CCCCOCCOCCOCc1cc2c(cc1CCC)OCO2", "CCRIS mutagenicity, Ames/micronucleus/aberration tests", "no"],
  ["ClCC1CO1 (stereo not given)", "CCRIS mutagenicity, Ames/micronucleus/aberration tests", "yes"],
  ["O=C1CC(c2ccc(O)cc2)Oc2cc(O)cc(O)c21 (stereo not given)", "CCRIS mutagenicity, Ames/micronucleus/aberration tests", "no"],
  ["CN(CCO)CCO", "CCRIS mutagenicity, Ames/micronucleus/aberration tests", "no"],
  ["CC(C)(C)N(Cc1ccccc1)CC(O)c1ccc(O)c(CO)c1 (stereo not given)", "CCRIS mutagenicity, Ames/micronucleus/aberration tests", "no"],
  ["FC(F)(F)c1ccccc1Cl", "CCRIS mutagenicity, Ames/micronucleus/aberration tests", "no"],
  ["COc1ccc(S(=O)(=O)n2ncc(Cl)c(Cl)c2=O)cc1", "CCRIS mutagenicity, Ames/micronucleus/aberration tests", "no"]
]}

Exam item: Tell me the recorded outcome of this test for `Cc1cc(O)c2c(c1)C(=O)c1cccc(O)c1C2=O` .
Marked response: no

Exam item: For `CC(=O)Nc1snc2ccc(Cl)cc12` , what call appears in the results of this test?
Marked response: no

Exam item: Assay outcome for C[C@@H]1Cc2c(Cl)cc(C(=O)NC(Cc3ccccc3)C(=O)O)c(O)c2C(=O)O1 (stereo not given in full) : what was it?
Marked response: no

Exam item: Tell me the assay call for `CC(C)C[C@@H]1NC(=O)CNC1=O` please.
Marked response: no
